Source of measurements: paper PMC6876245

Target: POT1 Y36N;TPP1 (human;human, UniProt Q9NUX5;Q96AP0 1-634;3-248, Y36N|)
Sequence (Q9NUX5 whole entry Y36N, chain 1 of 2): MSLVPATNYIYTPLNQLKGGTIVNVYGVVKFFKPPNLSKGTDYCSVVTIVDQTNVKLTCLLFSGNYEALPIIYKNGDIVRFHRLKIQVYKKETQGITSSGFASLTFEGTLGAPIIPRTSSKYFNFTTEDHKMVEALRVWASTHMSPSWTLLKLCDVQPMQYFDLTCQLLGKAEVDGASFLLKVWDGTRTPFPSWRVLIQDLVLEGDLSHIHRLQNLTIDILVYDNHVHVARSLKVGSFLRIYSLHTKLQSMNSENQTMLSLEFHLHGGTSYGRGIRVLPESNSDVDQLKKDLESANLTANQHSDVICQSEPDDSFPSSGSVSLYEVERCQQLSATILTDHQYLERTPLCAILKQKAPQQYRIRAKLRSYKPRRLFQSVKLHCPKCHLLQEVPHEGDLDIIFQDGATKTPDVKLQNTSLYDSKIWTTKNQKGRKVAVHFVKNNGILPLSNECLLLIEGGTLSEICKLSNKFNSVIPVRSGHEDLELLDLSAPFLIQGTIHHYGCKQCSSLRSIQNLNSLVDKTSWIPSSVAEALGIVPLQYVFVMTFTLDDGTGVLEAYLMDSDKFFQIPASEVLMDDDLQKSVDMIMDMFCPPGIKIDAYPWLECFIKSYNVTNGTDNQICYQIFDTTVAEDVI
Sequence (Q96AP0 3-248, chain 2 of 2): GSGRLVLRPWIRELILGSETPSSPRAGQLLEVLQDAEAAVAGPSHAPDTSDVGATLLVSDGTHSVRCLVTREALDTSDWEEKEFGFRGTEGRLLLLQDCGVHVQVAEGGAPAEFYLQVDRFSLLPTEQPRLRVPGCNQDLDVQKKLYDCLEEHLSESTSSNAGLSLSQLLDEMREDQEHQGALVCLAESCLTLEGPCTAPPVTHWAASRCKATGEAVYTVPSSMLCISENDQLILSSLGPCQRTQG
Assay: EMSA
READOUT_NAME: pKd
Please express pKd as -log10 of the molar concentration.

-- ask Using the record for GGTTAGGGTTAG (ssDNA) [hT12] , report its pKd.
-- reply 8.66
